Measured DC50 accompanies every entry in the list below.
# test_system: BTK (Homo sapiens, UniProt Q06187)
# Sequence (Q06187 whole entry): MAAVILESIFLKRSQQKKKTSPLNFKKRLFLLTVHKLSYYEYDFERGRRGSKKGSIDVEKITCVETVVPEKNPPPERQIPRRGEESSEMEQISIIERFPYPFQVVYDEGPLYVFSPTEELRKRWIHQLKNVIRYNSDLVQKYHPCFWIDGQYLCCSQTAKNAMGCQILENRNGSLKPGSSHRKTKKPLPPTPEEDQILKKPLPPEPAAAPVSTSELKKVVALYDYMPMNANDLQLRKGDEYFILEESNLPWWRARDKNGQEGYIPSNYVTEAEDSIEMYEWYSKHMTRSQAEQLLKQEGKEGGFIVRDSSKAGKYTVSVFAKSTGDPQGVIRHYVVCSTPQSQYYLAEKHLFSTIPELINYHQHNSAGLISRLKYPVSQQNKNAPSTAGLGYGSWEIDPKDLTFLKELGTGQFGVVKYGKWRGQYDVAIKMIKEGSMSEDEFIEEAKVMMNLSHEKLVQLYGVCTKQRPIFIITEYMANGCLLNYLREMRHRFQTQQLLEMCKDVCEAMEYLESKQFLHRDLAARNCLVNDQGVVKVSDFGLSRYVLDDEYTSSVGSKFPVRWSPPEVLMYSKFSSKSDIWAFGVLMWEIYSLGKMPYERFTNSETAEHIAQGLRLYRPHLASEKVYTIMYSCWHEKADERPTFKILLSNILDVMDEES
# procedure_text: Degradation of BTK protein in Namalwa cells (Western blot; DC50, Dmax)
# condition_context: read-out: DC50 (BTK degradation); concentration giving 50% reduction of BTK expression level; cell line not given

compound	DC50
NC1=NC=NC2C1C(c1ccc(Oc3ccccc3)cc1)=NN2C1CCCN(C2CN(C(=O)N3CC(C4CN(c5ccc6c(c5)CN(C5CCC(=O)NC5=O)C6=O)C4)C3)C2)C1 (stereo not shown)	10 to 50 nM
Nc1ncnc2c1c(-c1ccc(Oc3ccccc3)cc1)nn2C1CCN(C(=O)C2CN(C3CCN(c4ccc5c(c4)CN(C4CCC(=O)NC4=O)C5=O)CC3)C2)CC1 (stereo not shown)	< 10 nM
Nc1ncnc2c1c(-c1ccc(Oc3ccccc3)cc1)nn2C1CCN(CCCN2CCC(CN3CCC(c4ccc(N5CCC(=O)NC5=O)cc4)CC3)CC2)CC1	10 to 50 nM
NC(=O)c1c(-c2ccc(Oc3ccccc3)cc2)nn2c1NCC[C@H]2C1CCN(CC2CCN(C(=O)N3CCN(CC4CCN(c5ccc6c(c5)C(=O)N(C5CCC(=O)NC5=O)C6=O)CC4)CC3)CC2)CC1 (stereo partly shown)	10 to 50 nM
Nc1ncnc2c1c(-c1ccc(Oc3ccccc3)cc1)nn2C1CCN(C2CCN(CC3CCN(c4ccc(N5CCC(=O)NC5=O)cc4)CC3)C2)CC1 (stereo not shown)	< 10 nM

Memo: NC1=NC=NC2C1C(c1ccc(Oc3ccccc3)cc1)=NN2[C@@H]1CCCN(C(=O)N2CC(C3CN(c4ccc5c(c4)CN(C4CCC(=O)NC4=O)C5=O)C3)C2)C1 (stereo partly shown) , reported DC50: < 10 nM

Memo: Nc1ncnc2c1c(-c1ccc(Oc3ccccc3)cc1)nn2C1CCN(CC2CCN(CC3CCN(c4ccc(N5CCC(=O)NC5=O)cc4)CC3)CC2)CC1 , reported DC50: < 10 nM

---

Measured Dmax accompanies every entry in the list below.
# test_system: BTK (Homo sapiens, UniProt Q06187)
# procedure_text: Degradation of BTK protein in Namalwa cells (Western blot; DC50, Dmax)
# condition_context: read-out: Dmax (BTK degradation)

Below, each entry is followed by its recorded Dmax result.
compound	readout_value
Nc1ncnc2c1c(-c1ccc(Oc3ccccc3)cc1)nn2C1CCN(CC2CCN(CC3CN(c4ccc5c(c4)CN(C4CCC(=O)NC4=O)C5=O)C3)C2)CC1 (centres unmarked)	> 90%
Nc1ncnc2c1c(-c1ccc(Oc3ccccc3)cc1)nn2C1CCC(C(=O)NCCN2CCN(c3ccc4c(c3)C(=O)N(C3CCC(=O)NC3=O)C4=O)CC2)CC1 (centres unmarked)	> 90%
NC(=O)c1c(-c2ccc(Oc3ccccc3)cc2)nn2c1NCC[C@H]2C1CCN(CC2CCN(C(=O)N3CCC(N4CCC(c5ccc6c(c5)CN(C5CCC(=O)NC5=O)C6=O)CC4)CC3)CC2)CC1 (some centres unmarked)	> 75%

Memo: Nc1ncnc2c1c(-c1ccc(Oc3ccccc3)cc1)nn2C1CCN(CC2CCN(CC3CCN(c4ccc(N5CCC(=O)NC5=O)cc4)CC3)C2)CC1 (centres unmarked) , reported Dmax: > 90%

Memo: Nc1ncnc2c1c(-c1ccc(Oc3ccccc3)cc1)nn2C1CCN(CCN2CCC(N3CCN(c4ccc5c(c4)CN(C4CCC(=O)NC4=O)C5=O)CC3)CC2)CC1 (centres unmarked) , reported Dmax: > 50%

Memo: NC(=O)c1c(-c2ccc(Oc3ccccc3)cc2)nn2c1NCC[C@H]2C1CCN(CC2CCN(C(=O)N3CCC(CN4CCC(c5ccc6c(c5)CN(C5CCC(=O)NC5=O)C6=O)CC4)CC3)CC2)CC1 (some centres unmarked) , reported Dmax: > 75%

Memo: Nc1ncnc2c1c(-c1ccc(Oc3ccccc3)cc1)nn2[C@@H]1CCCN(CC2CCN(c3ccc(N4CCC(=O)NC4=O)cc3)CC2)C1 , reported Dmax: > 50%

Memo: NC1=NC=NC2C1C(c1ccc(Oc3ccccc3)cc1)=NN2C1CCN(C(=O)N2CC(C3CN(c4ccc5c(c4)CN(C4CCC(=O)NC4=O)C5=O)C3)C2)CC1 (centres unmarked) , reported Dmax: > 90%

Memo: Nc1ncnc2c1c(-c1ccc(Oc3ccccc3)cc1)nn2C1CCN(CCN2CCC(N3CCN(c4ccc5c(c4)C(=O)N(C4CCC(=O)NC4=O)C5=O)CC3)CC2)CC1 (centres unmarked) , reported Dmax: > 90%

Memo: Nc1ncnc2c1c(-c1ccc(Oc3ccccc3)cc1)nn2C1CCN(C[C@@H]2CCN(CC3CN(c4ccc5c(c4)C(=O)N(C4CCC(=O)NC4=O)C5=O)C3)C2)CC1 (some centres unmarked) [Compound 423b] , reported Dmax: > 90%

Memo: NC(=O)c1c(-c2ccc(Oc3ccccc3)cc2)nn2c1NCC[C@H]2C1CCN(CC2CCN(C(=O)N3CCC(N4CCN(c5ccc6c(c5)C(=O)N(C5CCC(=O)NC5=O)C6=O)CC4)CC3)CC2)CC1 (some centres unmarked) , reported Dmax: > 90%
